assay: Plasma concentration in RPA reaction study (satellite / exposure); format: in vivo, mouse; conditions: C57BL/6, mouse, plasma; 100 mg/kg oral, 90 minutes pretreatment; read-out: Satellite: At time of challenge Plasma Concentration ± SEM
experimentalReadout: concentration at 90 min (ng/mL)
Write the number in ng/mL without appending the unit.

Query: Requested read-out: concentration at 90 min. Entry: `COc1c(C)cc(Nc2ncc(F)c(Nc3ccc4c(c3)NC(=O)C(C)(C)O4)n2)cc1Cl`
Reply: 78.6

###

system: cultured human mast cells (CHMC), IgE-induced degranulation; test: CHMC low cell density IgE activation: tryptase assay; assay type: cell-based; details: low cell density CHMC, 3-point, read-out: LD Tryptase, CHMC, IgE, 3pt
experimentalReadout: IC50

Completed entries (count: 6):
{"columns": ["compound", "assayedSystem", "IC50"],
 "data": [
  ["CC(=O)N1CCN(c2cccc(Nc3ncc(F)c(Nc4ccc5c(n4)NCCO5)n3)c2)CC1", "cultured human mast cells (CHMC), IgE-induced degranulation", "< 10 µM"],
  ["COc1ccc(Nc2ncc(F)c(Nc3ccc4c(n3)NC(=O)[C@H](C)O4)n2)cc1Cl", "cultured human mast cells (CHMC), IgE-induced degranulation", "< 10 µM"],
  ["Fc1cnc(Nc2cccc(N3CCOCC3)c2)nc1Nc1ccc2c(n1)NCCO2", "cultured human mast cells (CHMC), IgE-induced degranulation", "< 10 µM"],
  ["CCOC(=O)COc1c(C)cc(Nc2ncc(F)c(Nc3ccc4c(n3)NC(=O)C(C)(C)O4)n2)cc1Cl", "cultured human mast cells (CHMC), IgE-induced degranulation", "> 10 µM"],
  ["CC1(C)Oc2ccc(Nc3nc(Nc4cccc(-c5ncco5)c4)ncc3F)nc2NC1=O", "cultured human mast cells (CHMC), IgE-induced degranulation", "< 10 µM"],
  ["COc1cc(Nc2ncc(F)c(Nc3ccc4c(n3)NC(=O)[C@H](C)O4)n2)cc(OC)c1OC", "cultured human mast cells (CHMC), IgE-induced degranulation", "< 10 µM"]
]}

Query: Need IC50 of `Cn1ncc2ccc(Nc3ncc(F)c(Nc4ccc5c(n4)NCC(C)(C)O5)n3)cc21` , thanks.
Reply: < 10 µM

Query: Would you kindly share the measured IC50 for `CC1(C)Oc2ccc(Nc3nc(Nc4cccc(-c5cocn5)c4)ncc3F)nc2NC1=O` ?
Reply: < 10 µM

###

Listed molecules paired with reported pIC50
system: cultured human mast cells (CHMC), ionomycin-induced degranulation; assay: CHMC low cell density ionomycin activation: tryptase assay; assay type: cell-based; conditions: low cell density CHMC, ionomycin activation (2 μM final), 3pt, read-out: LD Tryptase, CHMC, Iono, 3pt
pIC50: −log10 of the molar value.

Consider the following illustrative entries.
{"columns": ["compound", "assayedSystem", "result"],
 "data": [
  ["Fc1cnc(Nc2cccc(-c3ncco3)c2)nc1Nc1ccc2c(n1)NCCO2", "cultured human mast cells (CHMC), ionomycin-induced degranulation", "< 5.00"],
  ["CN1CCN(c2cccc(Nc3ncc(F)c(Nc4ccc5c(n4)NCCO5)n3)c2)CC1", "cultured human mast cells (CHMC), ionomycin-induced degranulation", "< 5.00"],
  ["CNC(=O)CNC(=O)c1ccc(Nc2ncc(F)c(Nc3ccc4c(c3)NC(=O)[C@H](C)O4)n2)cc1", "cultured human mast cells (CHMC), ionomycin-induced degranulation", "< 5.00"]
]}

Query: Requested read-out: pIC50. Entry: `C[C@@H]1Oc2ccc(Nc3nc(Nc4ccc(CNC(=O)CNC(=O)OC(C)(C)C)cc4)ncc3F)cc2NC1=O`
Reply: > 5.00

###

Experiment: Plasma concentration in RPA reaction study (satellite / exposure)
Format: in vivo, mouse
Conditions: C57BL/6, mouse, plasma; 5 mg/kg oral, pretreatment 0.5 hrs; read-out: Exposure = Pretreatment Time + 4 hours Plasma Concentration ± SEM
Description: Pretreatment time, in which the test compounds are administered prior to Ab/Ag challenge, depends on the pharmacokinetic (PK) properties of each individual compound. Four hours after induction of Arthus reaction, mice are euthanized, and tissues are harvested for assessment of edema. All compounds tested were administered by the oral route.
experimentalReadout: concentration at 4.5 h (ng/mL)
Please state the figure in ng/mL; there is no need to write the unit.

Query: For the compound shown here, `COc1cc(Nc2ncc(F)c(Nc3ccc4c(n3)NC(=O)C(C)(C)O4)n2)cc(OC)c1OC` , give the reported concentration at 4.5 h.
Reply: 19.8

###

experiment: Plasma concentration in RPA reaction study (satellite / exposure); format: in vivo, mouse; settings: C57BL/6, mouse, plasma; 2 mg/kg oral, pretreatment 1 hr; read-out: Exposure = Pretreatment Time + 4 hours Plasma Concentration ± SEM
experimentalReadout: concentration at 5 h (ng/mL)
Field: numeric (ng/mL). Do not append units.

Query: // lookup concentration at 5 h for Cn1c(N2CCOCC2)nc2cc(Nc3ncc(F)c(Nc4ccc5c(c4)NC(=O)C(C)(C)O5)n3)ccc21 [Compound 944]
Reply: 4.3

###

Entries annotated with measured pIC50
tested on: cultured human mast cells (CHMC), IgE-induced degranulation; assay: CHMC low cell density IgE activation: tryptase assay; type: cell-based; details: low cell density CHMC, 3-point, read-out: LD Tryptase, CHMC, IgE, 3pt
pIC50: −log10 of the molar value.

{"columns": ["compound", "pIC50"],
 "data": [
  ["COc1cccc(Nc2ncc(F)c(Nc3ccc4c(n3)NC(=O)C(C)(C)O4)n2)c1C", "> 5.00"],
  ["CNC(=O)COc1cccc(Nc2ncc(F)c(Nc3ccc4c(c3)NC(=O)C(F)(F)O4)n2)c1 [Compound 1045]", "> 5.00"]
]}

Query: What value of pIC50 has been reported for the following compound? `CN1CCN(c2ccc(Nc3ncc(F)c(Nc4ccc5c(n4)NCCO5)n3)cc2)CC1`
Reply: > 5.00

Query: I would be grateful if you could share the reported pIC50 for `CNC(=O)c1ccc(Nc2ncc(F)c(Nc3ccc4c(n3)NC(=O)C(C)(C)O4)n2)cc1Cl` .
Reply: > 5.00

Query: Fill in the blank: the reported pIC50 of `Cc1cc(Nc2ncc(F)c(Nc3ccc4c(n3)NC(=O)C(C)(C)O4)n2)cc(Cl)c1OC1CCCC1` is ____.
Reply: > 5.00

Query: Give its pIC50 value. Item: `CC1(C)CNc2nc(Nc3nc(Cl)ncc3F)ccc2O1`
Reply: < 5.00

Query: # input compound: `Fc1cnc(Cl)nc1Nc1ccc2c(n1)NCCO2` ; wanted: its pIC50
Reply: < 5.00

Query: Entry `CNC(=O)COc1cccc(Nc2ncc(F)c(Nc3ccc4c(n3)NCC(C)(C)O4)n2)c1` : reported pIC50 = ?
Reply: > 5.00

Query: Look up pIC50: `CCOC(=O)N1CCN(c2cccc(Nc3ncc(F)c(Nc4ccc5c(n4)NCCO5)n3)c2)CC1`
Reply: > 5.00

Query: Please look up its pIC50: `CCOC(=O)N1CCN(c2ccc(Nc3ncc(F)c(Nc4ccc5c(n4)NCCO5)n3)cc2)CC1`
Reply: > 5.00

Query: Param item = Cc1cc(Nc2ncc(F)c(Nc3ccc4c(n3)NC(=O)C(C)(C)O4)n2)cc(Cl)c1OCC(=O)NCC(O)CO (stereo not shown) ; retrieve measured pIC50.
Reply: > 5.00

Query: // pIC50 lookup, key: `Cc1cc(C)cc(Nc2ncc(F)c(Nc3ccc4c(n3)NC(=O)[C@H](C)O4)n2)c1`
Reply: < 5.00

Query: Please look up its pIC50: `CC(C)n1ncc2ccc(Nc3ncc(F)c(Nc4ccc5c(n4)NC(=O)C(C)(C)O5)n3)cc21`
Reply: > 5.00

Query: # pIC50 lookup, item `CC1(C)Oc2ccc(Nc3nc(Nc4ccc5c(c4)OCCO5)ncc3F)nc2NC1=O`
Reply: > 5.00

Query: Give the measured pIC50 of `CCn1ncc2ccc(Nc3ncc(F)c(Nc4ccc5c(n4)NC(=O)C(C)(C)O5)n3)cc21` .
Reply: > 5.00

Query: For the compound CNC(=O)COc1cccc(Nc2ncc(F)c(Nc3ccc4c(c3)NC(=O)C(F)(F)O4)n2)c1 [Compound 1046] , what pIC50 is on record?
Reply: > 5.00

Query: Consider the compound `CNC(=O)COc1c(C)cc(Nc2ncc(F)c(Nc3ccc4c(n3)NC(=O)C(C)(C)O4)n2)cc1C` and give its measured pIC50.
Reply: > 5.00

Query: What does the data say about its pIC50? Entry: `CCOC(=O)COc1c(C)cc(Nc2ncc(F)c(Nc3ccc4c(c3)NC(=O)C(C)(C)O4)n2)cc1Cl`
Reply: > 5.00

Query: Quick check: pIC50 of `C[C@@H]1Oc2ccc(Nc3nc(Nc4cc(C(C)(C)C)[nH]n4)ncc3F)nc2NC1=O` ?
Reply: > 5.00

###

tested on: cultured human mast cells (CHMC), ionomycin-induced degranulation; assay: CHMC low cell density ionomycin activation: tryptase assay; format: cell-based; settings: low cell density CHMC, ionomycin activation (2 μM final), 3pt, read-out: LD Tryptase, CHMC, Iono, 3pt
Below, each entry is listed with its recorded IC50.

{"columns": ["compound", "assayedSystem", "result"],
 "data": [
  ["CNC(=O)CNC(=O)c1ccc(Nc2ncc(F)c(Nc3ccc4c(c3)NC(=O)C(C)(C)O4)n2)cc1", "cultured human mast cells (CHMC), ionomycin-induced degranulation", "> 10 µM"],
  ["CC(C)(C)OC(=O)NCC(=O)NCc1ccc(Nc2ncc(F)c(Nc3ccc4c(c3)NC(=O)C(F)(F)O4)n2)cc1", "cultured human mast cells (CHMC), ionomycin-induced degranulation", "> 10 µM"]
]}

Query: Return reported IC50; argument: `COc1ccc(Nc2ncc(F)c(Nc3ccc4c(n3)NCCO4)n2)cc1Cl`
Reply: > 10 µM

Query: I am curious: what IC50 value has been reported for `CC(C)(C)OC(=O)NCC(=O)NCc1ccc(Nc2ncc(F)c(Nc3ccc4c(c3)NC(=O)C(C)(C)O4)n2)cc1` ?
Reply: < 10 µM
